# System: BTK (Homo sapiens)
# Sequence (Q06187 whole entry): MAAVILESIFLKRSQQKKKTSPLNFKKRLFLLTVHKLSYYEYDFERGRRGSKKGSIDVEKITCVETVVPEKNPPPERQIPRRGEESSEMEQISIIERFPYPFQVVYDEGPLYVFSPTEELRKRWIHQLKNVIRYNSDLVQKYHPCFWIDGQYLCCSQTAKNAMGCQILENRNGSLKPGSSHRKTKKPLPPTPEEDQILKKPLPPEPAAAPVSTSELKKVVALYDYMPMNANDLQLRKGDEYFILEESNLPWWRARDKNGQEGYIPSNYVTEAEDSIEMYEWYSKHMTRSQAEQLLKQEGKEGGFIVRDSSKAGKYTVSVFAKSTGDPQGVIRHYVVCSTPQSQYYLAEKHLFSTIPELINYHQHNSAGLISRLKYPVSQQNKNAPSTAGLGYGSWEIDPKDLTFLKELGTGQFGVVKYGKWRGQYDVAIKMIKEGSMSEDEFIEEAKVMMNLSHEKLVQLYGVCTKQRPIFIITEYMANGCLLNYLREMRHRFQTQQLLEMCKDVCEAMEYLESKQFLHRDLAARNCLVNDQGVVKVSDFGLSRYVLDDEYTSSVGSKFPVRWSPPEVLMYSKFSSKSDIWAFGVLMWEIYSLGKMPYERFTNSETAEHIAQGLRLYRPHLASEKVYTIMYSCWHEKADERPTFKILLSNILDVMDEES
pIC50: −log10 of the molar value. Counter-ions that a name gives are not always drawn.
Could you label it Satisfied if measured pIC50 is 8 or higher, and Not satisfied otherwise?

-- ask Quick check: does C=CC(=O)N1CC2CC1C(n1nc(-c3ccc(Oc4cccc(OC)c4)cc3)c3c(N)ncnc31)C2 (stereo not drawn) [Ex. 41] have pIC50 greater than or equal to 8?
-- reply Satisfied

-- ask Next record, please: C=CC(=O)N1CC2CC1C(n1nc(-c3ccc(Oc4cccc(N)c4)cc3)c3c(N)ncnc31)C2 (stereo not drawn) [Ex. 51, hydrochloride]
-- reply Not satisfied

-- ask Next record, please: N#CC(=CC1CC1)C(=O)N1C[C@H]2CC(n3nc(-c4ccc(C(=O)Nc5ccccn5)cc4)c4c(N)ncnc43)[C@H]1C2 (stereo partly drawn) [Ex. 75]
-- reply Satisfied

-- ask Next record, please: C=CC(=O)N1C[C@@H]2C[C@H]1[C@@H](n1nc(-c3ccc(C(=O)Nc4cc(F)ccn4)cc3)c3c(N)ncnc31)C2 [Ex. 72]
-- reply Satisfied

-- ask Next record, please: C=CC(=O)N1CC2CC1C(n1nc(-c3cccc(C(=O)Nc4ccc(C(C)C)c(C)c4)c3)c3c(N)ncnc31)C2 (stereo not drawn) [Ex. 10]
-- reply Not satisfied

-- ask Next record, please: C=CC(=O)N1CC2CC1CC2n1nc(-c2cccc(C(=O)Nc3ccccc3)c2)c2c(N)ncnc21 (stereo not drawn) [Ex. 24]
-- reply Not satisfied

-- ask Next record, please: C=CC(=O)N1C[C@@H]2C[C@H]1C[C@H]2n1nc(-c2ccc(Oc3ccccc3)cc2)c2c(N)ncnc21 [Ex. 14]
-- reply Satisfied

-- ask Next record, please: CN1CCN(C/C=C/C(=O)N2CC3CC2C(n2nc(-c4ccc(Oc5ccccc5)cc4)c4c(N)ncnc42)C3)CC1 (stereo not drawn) [Ex. 62]
-- reply Satisfied

* * *

# System: ITK (Homo sapiens, UniProt Q08881)
# Sequence (Q08881 1-620): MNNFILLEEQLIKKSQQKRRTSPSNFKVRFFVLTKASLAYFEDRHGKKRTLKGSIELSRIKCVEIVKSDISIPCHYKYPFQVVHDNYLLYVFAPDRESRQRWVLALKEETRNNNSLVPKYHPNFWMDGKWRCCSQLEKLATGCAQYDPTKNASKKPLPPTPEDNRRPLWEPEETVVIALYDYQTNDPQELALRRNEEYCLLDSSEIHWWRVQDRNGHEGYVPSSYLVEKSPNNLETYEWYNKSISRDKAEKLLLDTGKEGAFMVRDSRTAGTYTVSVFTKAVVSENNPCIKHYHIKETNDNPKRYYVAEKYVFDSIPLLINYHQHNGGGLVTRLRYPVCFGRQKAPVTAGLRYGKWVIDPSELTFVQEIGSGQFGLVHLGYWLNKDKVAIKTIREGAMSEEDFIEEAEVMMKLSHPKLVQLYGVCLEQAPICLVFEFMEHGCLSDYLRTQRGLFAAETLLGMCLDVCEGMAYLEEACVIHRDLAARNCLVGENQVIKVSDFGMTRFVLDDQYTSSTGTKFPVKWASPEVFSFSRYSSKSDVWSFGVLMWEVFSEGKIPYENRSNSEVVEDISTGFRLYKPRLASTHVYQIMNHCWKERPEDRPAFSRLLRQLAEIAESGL
Readout: IC50

-- ask Which value of IC50 has been reported for C=CC(=O)N1CC2CC1C(n1nc(-c3ccc(S(=O)(=O)Nc4ccccc4)cc3)c3c(N)ncnc31)C2 (stereo not drawn) in the records?
-- reply > 1000 nM

-- ask Next record, please: C=CC(=O)N1CC2CC1CC2n1nc(-c2ccc(Oc3ccccc3)cc2)c2c(N)ncnc21 (stereo not drawn)
-- reply > 1000 nM

-- ask Next record, please: C=CC(=O)N1CC2CC1C(n1nc(-c3ccc(Oc4cccc(OC)c4)cc3)c3c(N)ncnc31)C2 (stereo not drawn)
-- reply > 1000 nM

-- ask Next record, please: C=CC(=O)N1CC2CC1C(n1nc(-c3ccc(Oc4cccc(N(C)C)c4)cc3)c3c(N)ncnc31)C2 (stereo not drawn)
-- reply > 500 nM

-- ask Next record, please: N#CC(=CC1CC1)C(=O)N1C[C@@H]2C[C@@H]1[C@@H](n1nc(-c3ccc(C(=O)Nc4ccccn4)cc3F)c3c(N)ncnc31)C2
-- reply > 200 nM

-- ask Next record, please: C#CC(=O)N1CC2CC1C(n1nc(-c3cccc(Oc4ccccc4)c3)c3c(N)ncnc31)C2 (stereo not drawn)
-- reply 123 nM
